Entries annotated with measured Cas9 with SSAP activity (normalized)
# Tested on: gene editing with Cas9
# test.method.notes: Screen of 322 new SSAP proteins, gene editing activity with Cas9 (Table 5)
# Assay type: cell-based
# condition.summary: normalized
Could you keep your reply to the number by itself?

[[record]]
molecule = "SSAP_51: SEQ ID NO: 220 (protein) AENEKQALLQEENKSENVVSTVKRTALATNPFSDTDQFNNIFKMAQLISQSDMIPATYKGKPMNCVIALEQANRMGVSPLMVMQNLYVVKGVPSWSGQGCMMIIQGCGKFRDVDYVYSGEKGTDSRSCKVVATRISDGKRIEGTEITMQMVKSEGWISNTKWKNMPEQMLGYRAATFFARMYCPNELNGFATEGEAEDMNHKPQRIEAINVLGDTAHE"
quantity_kind = "Cas9 with SSAP activity (normalized)"
observed = "−0.406"


Please find the next molecule below.
Request: Need Cas9 with SSAP activity (normalized) of SSAP_219: SEQ ID NO: 388; Streptomyces uncialis (protein, listed as Streptomyces uncialis) SQISTAIATRDNGPAAVVEQYRESLALVMPSHLQQRVGAWIRNTQGLLRRDSKLMEAAQNDVGQFVAVLMDAARLGLEPGTEHYYLVPRWNNKKRATEVTGVRGYQGEIELMYRAGAVSSVIVEVVHTQDQFRFRPGRDARPVHDIDWDLEDRGSLRLVYAYAVMKDGATSKVVVLNRQHIAAARAKSDSAAKDWSPWNTDEEAMWLKTAAHRLTKWVPTSAEYLREQIRAQVAVESEQRPEPLPVAPPPAPGTVDADPDDEGPIDGELVD , thanks.
Response: 0.924
